half-life reference
# System: human liver microsomes, metabolic stability half-life
# assay procedure: NCATS Human Liver Microsomal (HLM) Stability Profiling
# conditions: higher = more stable; screened at 1 µM (by protocol)
Respond numerically; units are min and should not be typed.

Recorded results for 5 molecules are shown here.
{"molecule": "FC(F)(F)c1ccccc1-c1cc(C(F)(F)F)c2nc(C3=NOC4(CCCCC4)C3)[nH]c2c1", "u": "min", "assay result": 67.7}
{"molecule": "CCN(CC)C(=O)SCc1ccc(Cl)cc1", "u": "min", "assay result": 2.59}
{"molecule": "CCN(CC)C(=O)C(c1ccccc1)N1CCN(c2ccc(NC(=O)c3ccccc3-c3cccnc3)cc2F)CC1 (centres undefined)", "u": "min", "assay result": 4.93}
{"molecule": "O=C(Cc1ccc(-c2ccccc2)cc1)NC1CCC1", "u": "min", "assay result": 1.5}
{"molecule": "CCC(CC)n1ccc2c(C(=O)NCc3c(C)cc(C)[nH]c3=O)cc(C#N)cc21", "u": "min", "assay result": 3.94}

Next, consider the following molecule.
**Query** State the recorded half-life for this entry: CC1(C)CCC(CN2CCN(c3ccc(C(=O)NS(=O)(=O)c4ccc(NCC5CCOCC5)c([N+](=O)[O-])c4)c(Oc4cnc5[nH]ccc5c4)c3)CC2)=C(c2ccc(Cl)cc2)C1
**Result** 32.8
